test: Retention time of the compound by HPLC-MS analysis; type: physicochemical
Retention_time values for the compounds below.
measuredQuantity: Retention_time (min)

>  <compound>
CC(NC(C)(C)C)C(=O)c1cccc(Cl)c1 (centres undefined)

>  <measuredQuantity>
Retention_time

>  <reportedValue>
9.7

$$$$
>  <compound>
O=C1C=C2CN(Cc3ccccc3Cl)CCC2S1 (centres undefined)

>  <measuredQuantity>
Retention_time

>  <reportedValue>
4.9

$$$$
>  <compound>
OC1CN(Cc2ccccc2Cl)Cc2ccsc21 (centres undefined)

>  <measuredQuantity>
Retention_time

>  <reportedValue>
4.56

$$$$
>  <compound>
[O-][N+]1(Cc2ccccc2Cl)CCc2sccc2C1 (centres undefined)

>  <measuredQuantity>
Retention_time

>  <reportedValue>
8

$$$$

---

kobs values for the molecules below.
Target: Cytochrome P450 2B4 (Oryctolagus cuniculus)
Sequence (P00178 whole entry): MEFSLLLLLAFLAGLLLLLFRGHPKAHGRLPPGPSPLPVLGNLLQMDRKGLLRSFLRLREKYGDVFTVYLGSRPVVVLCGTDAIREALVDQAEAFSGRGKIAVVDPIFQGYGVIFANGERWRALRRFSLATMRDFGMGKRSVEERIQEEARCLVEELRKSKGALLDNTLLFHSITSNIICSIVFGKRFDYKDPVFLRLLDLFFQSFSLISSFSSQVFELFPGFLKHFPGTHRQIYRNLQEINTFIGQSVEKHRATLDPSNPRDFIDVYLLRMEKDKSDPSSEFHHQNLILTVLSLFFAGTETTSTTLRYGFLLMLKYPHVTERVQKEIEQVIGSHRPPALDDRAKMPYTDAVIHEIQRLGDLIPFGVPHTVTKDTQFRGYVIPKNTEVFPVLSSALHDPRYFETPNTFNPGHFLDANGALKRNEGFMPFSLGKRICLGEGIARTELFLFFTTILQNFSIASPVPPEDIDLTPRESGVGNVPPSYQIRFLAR
Assay: Activity of rabbit CYP2B4 assessed as observed rate constant for enzyme-mediated compound formation treated with 1 uM ticlopidine by HPLC-MS analysis in presence of NADPH
Type: ADME

>  <molecule>
OC1CN(Cc2ccccc2Cl)Cc2ccsc21 (centres undefined)

>  <studyTarget>
Cytochrome P450 2B4 (Oryctolagus cuniculus)

>  <unitOfMeasure>
min⁻¹

>  <kobs>
0.49

$$$$
>  <molecule>
[O-][N+]1(Cc2ccccc2Cl)CCc2sccc2C1 (centres undefined)

>  <studyTarget>
Cytochrome P450 2B4 (Oryctolagus cuniculus)

>  <unitOfMeasure>
min⁻¹

>  <kobs>
0.66

$$$$
>  <molecule>
Clc1ccccc1C[n+]1ccc2sccc2c1

>  <studyTarget>
Cytochrome P450 2B4 (Oryctolagus cuniculus)

>  <unitOfMeasure>
min⁻¹

>  <kobs>
0.56

$$$$
>  <molecule>
O=C1C=C2CN(Cc3ccccc3Cl)CCC2S1 (centres undefined)

>  <studyTarget>
Cytochrome P450 2B4 (Oryctolagus cuniculus)

>  <unitOfMeasure>
min⁻¹

>  <kobs>
0.48

$$$$

---

system: Liver microsome; assay: Drug level in human liver microsomes assessed as compound formation treated with 10 uM ticlopidine for 60 mins by HPLC-MS analysis in presence of NADPH; format: ADME; conditions: 1 h

>  <molecule>
Clc1ccccc1C[n+]1ccc2sccc2c1

>  <studyTarget>
Liver microsome

>  <Compound recovery>
metabolite_detected

$$$$
>  <molecule>
[O-][N+]1(Cc2ccccc2Cl)CCc2sccc2C1 (stereo not given)

>  <studyTarget>
Liver microsome

>  <Compound recovery>
metabolite_detected

$$$$
>  <molecule>
Clc1ccccc1C[N+]1=Cc2ccsc2CC1

>  <studyTarget>
Liver microsome

>  <Compound recovery>
metabolite_detected

$$$$
>  <molecule>
O=C1C=C2CN(Cc3ccccc3Cl)CCC2S1 (stereo not given)

>  <studyTarget>
Liver microsome

>  <Compound recovery>
metabolite_detected

$$$$
>  <molecule>
OC1CN(Cc2ccccc2Cl)Cc2ccsc21 (stereo not given)

>  <studyTarget>
Liver microsome

>  <Compound recovery>
metabolite_detected

$$$$

---

Target: UniProt:P00178
Sequence (P00178 whole entry): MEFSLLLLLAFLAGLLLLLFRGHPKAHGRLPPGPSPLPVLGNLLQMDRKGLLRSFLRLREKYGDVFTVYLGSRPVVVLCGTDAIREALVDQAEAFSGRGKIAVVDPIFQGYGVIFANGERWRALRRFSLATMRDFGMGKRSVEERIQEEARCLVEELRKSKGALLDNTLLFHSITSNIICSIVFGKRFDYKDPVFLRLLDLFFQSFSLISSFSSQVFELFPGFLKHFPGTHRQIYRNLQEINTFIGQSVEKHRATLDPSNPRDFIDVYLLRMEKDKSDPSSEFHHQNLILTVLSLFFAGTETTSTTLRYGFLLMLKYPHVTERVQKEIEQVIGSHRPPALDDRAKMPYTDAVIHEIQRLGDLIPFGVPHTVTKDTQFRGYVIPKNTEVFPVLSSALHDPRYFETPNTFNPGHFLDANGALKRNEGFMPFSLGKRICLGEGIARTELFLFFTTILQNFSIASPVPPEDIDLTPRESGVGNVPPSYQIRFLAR
Assay: Activity of rabbit CYP2B4 assessed as enzyme-mediated compound formation treated with 10 uM ticlopidine for 60 mins by HPLC-MS analysis in presence of NADPH
Type: ADME
Conditions: 1 h

>  <compound>
[O-][N+]1(Cc2ccccc2Cl)CCc2sccc2C1 (stereo not given)

>  <Compound recovery>
metabolite_detected

$$$$
>  <compound>
O=C1C=C2CN(Cc3ccccc3Cl)CCC2S1 (stereo not given)

>  <Compound recovery>
metabolite_detected

$$$$
>  <compound>
Clc1ccccc1C[N+]1=Cc2ccsc2CC1

>  <Compound recovery>
metabolite_detected

$$$$
>  <compound>
OC1CN(Cc2ccccc2Cl)Cc2ccsc21 (stereo not given)

>  <Compound recovery>
metabolite_detected

$$$$
>  <compound>
Clc1ccccc1C[n+]1ccc2sccc2c1

>  <Compound recovery>
metabolite_detected

$$$$

---

target: Cytochrome P450 2B6 (Homo sapiens); test: Activity of recombinant full-length CYP2B6 (unknown origin) expressed in baculovirus-infected insect cells assessed as enzyme-mediated compound formation treated with 10 uM ticlopidine for 60 mins by HPLC-MS analysis in presence of NADPH; type: ADME; details: 1 h
Sequence (P20813 whole entry): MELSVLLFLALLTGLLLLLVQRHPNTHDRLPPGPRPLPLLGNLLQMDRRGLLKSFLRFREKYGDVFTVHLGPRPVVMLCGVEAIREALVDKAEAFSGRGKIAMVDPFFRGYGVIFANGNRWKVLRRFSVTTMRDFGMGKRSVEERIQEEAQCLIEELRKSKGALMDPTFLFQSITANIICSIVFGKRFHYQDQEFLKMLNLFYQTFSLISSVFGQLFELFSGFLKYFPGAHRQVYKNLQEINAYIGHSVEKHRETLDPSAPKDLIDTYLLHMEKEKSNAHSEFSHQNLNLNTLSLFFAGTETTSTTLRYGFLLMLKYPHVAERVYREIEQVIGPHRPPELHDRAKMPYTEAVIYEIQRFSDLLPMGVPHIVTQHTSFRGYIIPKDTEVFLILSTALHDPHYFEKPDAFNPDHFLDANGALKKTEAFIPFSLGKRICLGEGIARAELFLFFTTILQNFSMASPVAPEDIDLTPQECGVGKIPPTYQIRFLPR

>  <compound>
OC1CN(Cc2ccccc2Cl)Cc2ccsc21 (stereo not given)

>  <Compound recovery>
metabolite_detected

$$$$
>  <compound>
O=C1C=C2CN(Cc3ccccc3Cl)CCC2S1 (stereo not given)

>  <Compound recovery>
metabolite_detected

$$$$
>  <compound>
Clc1ccccc1C[n+]1ccc2sccc2c1

>  <Compound recovery>
metabolite_detected

$$$$
>  <compound>
Clc1ccccc1C[N+]1=Cc2ccsc2CC1

>  <Compound recovery>
metabolite_detected

$$$$
>  <compound>
[O-][N+]1(Cc2ccccc2Cl)CCc2sccc2C1 (stereo not given)

>  <Compound recovery>
metabolite_detected

$$$$

---

target: CYP2B4 (Oryctolagus cuniculus); experiment: Inhibition of rabbit CYP2B4 assessed as inactivation rate constant at 100 uM for 2 mins by HPLC-MS analysis in presence of NADPH; assay type: ADME
kinact at 2 min, 100 µM values for the compounds below.

>  <compound>
CC(NC(C)(C)C)C(=O)c1cccc(Cl)c1 (configuration not stated)

>  <unitOfMeasure>
s⁻¹

>  <kinact at 2 min, 100 µM>
0.00133

$$$$
>  <compound>
CCOc1ccc2c(C(F)(F)F)cc(=O)oc2c1

>  <unitOfMeasure>
s⁻¹

>  <kinact at 2 min, 100 µM>
0.000333

$$$$
